- assay: Pharmacokinetics in beagles, multiple-dose regimen (once per day for 7 days) of TRQI or TRQC, plasma LC-MS/MS
- Assay type: in vivo
- experimental conditions: both sexes, beagle, dog, po, 0.09 g/kg, TRQC 0.09 g/kg for 7 days, Mean, read-out: AUC0–24 h
- Protocol: 100 μL plasma sample was drawn and transferred to 1.5 mL centrifuge tube prior to 300 μL protein precipitant (3:1 [v/v] methanol/acetonitrile, containing 0.1% formic acid and 100 ng/mL IS) was added, and then the sample was vortex-mixed for 3 min. The mixture was centrifuged at 20,000 ×g for 10 min, and 100 μL supernatant was transferred to the injection vial and analyzed directly by LC–MS/MS. […]
observable: AUC(0-t) (ng·h/mL)

C[C@H](CCC(=O)O)[C@H]1CC[C@H]2[C@@H]3[C@@H](O)C[C@@H]4C[C@H](O)CC[C@]4(C)[C@H]3CC[C@]12C : 28500
O=C(O)[C@H]1O[C@@H](Oc2cc3oc(-c4ccccc4)cc(=O)c3c(O)c2O)[C@H](O)[C@@H](O)[C@@H]1O : 107

I. C[C@H](CCC(=O)O)[C@H]1CC[C@H]2[C@@H]3[C@H](O)C[C@@H]4C[C@H](O)CC[C@]4(C)[C@H]3CC[C@]12C
II. O=C(/C=C/c1ccc(O)c(O)c1)O[C@@H]1C[C@](O)(C(=O)O)C[C@@H](O)[C@H]1O
Query :: Hi there! Just curious which has the higher AUC(0-t) between I and II . State the label of the item chosen.
Result :: I

###

- assay: Pharmacokinetics in beagles, multiple-dose regimen (once per day for 7 days) of TRQI or TRQC, plasma LC-MS/MS
- Type: in vivo
- experimental conditions: female, beagle, dog, iv, 0.5 mL/kg, TRQI 0.5 mL/kg for 7 days, beagle No. 4
observable: AUC(0-inf) (ng·h/mL)

O=C(O)[C@H]1O[C@@H](Oc2cc3oc(-c4ccccc4)cc(=O)c3c(O)c2O)[C@H](O)[C@@H](O)[C@@H]1O [Baicalin, baicalin] : 670

P. C[C@H](CCC(=O)O)[C@H]1CC[C@H]2[C@@H]3[C@H](O)C[C@@H]4C[C@H](O)CC[C@]4(C)[C@H]3CC[C@]12C [Chenodeoxycholic acid, chenodeoxycholic acid]
Q. O=C(/C=C/c1ccc(O)c(O)c1)O[C@@H]1C[C@](O)(C(=O)O)C[C@@H](O)[C@H]1O [Chlorogenic acid, chlorogenic acid]
R. C[C@H](CCC(=O)O)[C@H]1CC[C@H]2[C@@H]3[C@@H](O)C[C@@H]4C[C@H](O)CC[C@]4(C)[C@H]3CC[C@]12C [Ursodeoxycholic acid, ursodeoxycholic acid]
Query :: Task for the reader: rank each entry by its AUC(0-inf), from the minimum upward. Field: ranking. Enter the labels in the order requested.
Result :: Q, P, R
(Q: 19.3 ng·h/mL, P: 6190 ng·h/mL, R: 14900 ng·h/mL)

###

- assay: Pharmacokinetics in beagles, single-dose regimen of TRQI (i.v.) or TRQC (oral), plasma LC-MS/MS
- Assay type: in vivo, beagle
- experimental conditions: both sexes, beagle, dog, plasma; single oral dose of TRQC 0.09 g/kg; mean of six beagles
observable: half-life (h)

C[C@H](CCC(=O)O)[C@H]1CC[C@H]2[C@@H]3[C@H](O)C[C@@H]4C[C@H](O)CC[C@]4(C)[C@H]3CC[C@]12C [Chenodeoxycholic acid, chenodeoxycholic acid] : 5.93

1. O=C(/C=C/c1ccc(O)c(O)c1)O[C@@H]1C[C@](O)(C(=O)O)C[C@@H](O)[C@H]1O [Chlorogenic acid, chlorogenic acid]
2. C[C@H](CCC(=O)O)[C@H]1CC[C@H]2[C@@H]3[C@@H](O)C[C@@H]4C[C@H](O)CC[C@]4(C)[C@H]3CC[C@]12C [Ursodeoxycholic acid, ursodeoxycholic acid]
Query :: Hi there! Just curious which has the higher half-life between 1 and 2 . State the label of the item chosen.
Result :: 2
(2: 10.4 h, 1: 1.45 h)
